B1: Steroid hormone receptor ERR2, residues 100 to 176; numbered along this chain, O95718 (parent)
chain: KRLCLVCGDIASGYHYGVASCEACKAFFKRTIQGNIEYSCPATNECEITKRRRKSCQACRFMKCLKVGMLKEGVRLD

variants of: B1; assay: abundance fitness (aPCA) (normalised: wild type 0, dead -1); higher = more abundant; growth selection in yeast, the domain comes from the species named; conditions: Homo sapiens
measurement.kind: abundance fitness
Give bare numbers.

Some variants with recorded abundance fitness:
A58S = -0.33
M62P = -1.05
H15E = -0.045
A11N = -0.153
E37Q = -0.41
R52L = 0.099
C46P = -0.796
Q57M = -0.221
V18Q = -0.375
R30W = -0.121

Below is a list of variants. For each, state its recorded abundance fitness.
1. N44I
2. C56H
3. S39Y
4. A11G

1. 0.034
2. -0.599
3. 0.283
4. -0.013

Below is a list of variants. For each, state its recorded abundance fitness.
1. R2K
2. G17F
3. Q57S
4. P41A
5. N35E

[-0.066, -0.551, -0.125, 0.056, 0.157]

The reported numbers originate from the Human Domainome abundance scans (Beltran et al. 2025).
